- Tested on: Danio rerio Tg(wt1b:EGFP) embryo, pronephros
- Assay comment: glomerular width (mean of left and right), fold change vs DMSO control; higher = wider glomerulus
- Test settings: 25 µM; exposure: 24-48 hpf
Counter-ions that a name gives are not always drawn.
Quick list: glomerular width per entry.
Property: glomerular width

[
  {
    "Compound": "CN(C)C(=O)C(CCN1CCC(O)(c2ccc(Cl)cc2)CC1)(c1ccccc1)c1ccccc1 [Loperamide hydrochloride]",
    "Val": 1.04
  },
  {
    "Compound": "CCOC(=O)n1ccn(C)c1=S",
    "Val": 0.997
  },
  {
    "Compound": "CCCNC(C)C(=O)Nc1ccccc1C (stereo not given) [Prilocaine hydrochloride]",
    "Val": 0.947
  },
  {
    "Compound": "CN(C)CCC=C1c2ccccc2CCc2ccccc21 [Amitryptiline hydrochloride]",
    "Val": 0.973
  },
  {
    "Compound": "Nc1ccc(S(=O)(=O)Nc2ncccn2)cc1",
    "Val": 1.03
  }
]
